Give composite z-score for every item shown.
System: XIP peptide (Xip251-270)
Test: small-molecule binders of XIP peptide, primary screen, biochemical, small-molecule microarray, fluorescence 635/667 nm, 0.5 µg/mL protein (AID 1183)
Settings: small-molecule microarray binding, fluorescence 635 nm; higher = more signal
Give the figure by itself; no unit, no explanation.

Record `C=CCNC(=O)[C@H]1[C@@H]2C(=O)O[C@@H](c3ccccc3)[C@@H](c3ccccc3)N2[C@@H](c2ccc(O)cc2)[C@]12C(=O)Nc1ccc(C#CC3=CCCCC3)cc12` has XIP peptide (Xip251-270) composite z-score equal to 0.785

Record `CCCC[C@@H]1C[C@H]1[C@@H](NC(=O)Cc1ccccc1)c1ccc(Cl)cc1` has XIP peptide (Xip251-270) composite z-score equal to 0.503

Record O=C1C2C=CC(C(O)c3cccs3)N(Nc3ccccc3)C2C(=O)N1c1ccccc1 (centres undefined) has XIP peptide (Xip251-270) composite z-score equal to 0.171

Record `NCCCC[C@@H]1NC(=O)[C@H]2C[C@@H](C(=O)NCc3ccc(F)cc3)[C@@H](c3ccc(O)cc3)N2C1=O` has XIP peptide (Xip251-270) composite z-score equal to 0.563
